Molecular target: FAD-linked sulfhydryl oxidase ALR (Homo sapiens, UniProt P55789)
Sequence (P55789 whole entry): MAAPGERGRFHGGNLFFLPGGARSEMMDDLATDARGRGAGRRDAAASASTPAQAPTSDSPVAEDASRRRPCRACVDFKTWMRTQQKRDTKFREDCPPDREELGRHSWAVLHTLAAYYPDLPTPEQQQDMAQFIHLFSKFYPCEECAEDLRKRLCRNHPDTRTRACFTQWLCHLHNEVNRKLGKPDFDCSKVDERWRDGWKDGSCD
Assay: ALR-catalysed DTT oxidation blockers – biochemical, H2O2 detection, luminescence, cherry-pick, dose response (AID 493248)
Active and inactive are the calls of the source. Rule as the data show it: actives have a measured AC50 and inactives only a lower limit.
Each item that follows carries a reported AC50.
QUANTITY KIND: AC50

[
  {
    "SMILES CODE": "Cc1c(C(=O)c2ccc(N(C)C)cc2)c2ccccn2c1CCC#N",
    "VAL": "2.73 µM (active)"
  },
  {
    "SMILES CODE": "Cc1ccc(S(=O)(=O)Nc2c(C(=O)O)[nH]c3ccccc23)cc1C",
    "VAL": "10.8 µM (active)"
  },
  {
    "SMILES CODE": "C=CC[n+]1c(C)csc1Nc1cccc(Br)c1",
    "VAL": "7.54 µM (active)"
  },
  {
    "SMILES CODE": "Cc1ccc(S(=O)(=O)NNC(=O)c2ccc3ccccc3n2)cc1",
    "VAL": "7 µM (active)"
  },
  {
    "SMILES CODE": "Cc1ccc(Cn2c(N/N=C/c3ccncc3)nc3c2c(=O)n(C)c(=O)n3C)cc1",
    "VAL": "1.77 µM (active)"
  }
]
